Measured values drawn from patent US20230357447A1 for this set.

Assign Phage binding ELISA CD28 scFv signal in presence of CD28 to each entry below.
# Test target: Anti-CD28 scFv (VH-linker 1-VL) (biotinylated for capture on neutravidin plates)
# Sequence (scFv, as listed by the source): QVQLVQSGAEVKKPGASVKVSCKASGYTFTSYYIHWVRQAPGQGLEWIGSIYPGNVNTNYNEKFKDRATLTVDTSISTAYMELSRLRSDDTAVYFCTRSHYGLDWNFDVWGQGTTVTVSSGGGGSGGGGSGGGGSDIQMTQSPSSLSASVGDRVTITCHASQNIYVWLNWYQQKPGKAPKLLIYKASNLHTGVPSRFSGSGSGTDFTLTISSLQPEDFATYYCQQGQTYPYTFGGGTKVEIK
# Protocol: phage ELISA, scFv captured on plate, competitor soluble CD28;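 also: crude clonal phage supernatants added to wells pre-incubated with soluble CD28 or with blocking buffer only as control, bound phage read out with HRP-linked anti-M13 antibody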
Just the number, please, no unit after it.

Note Phage binding ELISA CD28 scFv signal in presence of CD28 for the binder shown: MDWCPRYLWTECFF [Phage-158]
0.244

// fetch Phage binding ELISA CD28 scFv signal in presence of CD28 given entry MHWCPINLWNECFS [Phage-184]
0.098

Look up Phage binding ELISA CD28 scFv signal in presence of CD28 of MDWCPRDLWNVCFA [Phage-154] and report it.
0.145

For VDWCPRYLWHVCYN [Phage-189] , write its Phage binding ELISA CD28 scFv signal in presence of CD28.
0.061
